Reported t1/2 by item:
Target: T1, amino acid residues 26-148 of human ANGPTL4 fused in-line to mouse IgG2a (hANGPTL4-mFc) (human)
T1 construct: contains the N-terminal coiled-coil region
T1 chain: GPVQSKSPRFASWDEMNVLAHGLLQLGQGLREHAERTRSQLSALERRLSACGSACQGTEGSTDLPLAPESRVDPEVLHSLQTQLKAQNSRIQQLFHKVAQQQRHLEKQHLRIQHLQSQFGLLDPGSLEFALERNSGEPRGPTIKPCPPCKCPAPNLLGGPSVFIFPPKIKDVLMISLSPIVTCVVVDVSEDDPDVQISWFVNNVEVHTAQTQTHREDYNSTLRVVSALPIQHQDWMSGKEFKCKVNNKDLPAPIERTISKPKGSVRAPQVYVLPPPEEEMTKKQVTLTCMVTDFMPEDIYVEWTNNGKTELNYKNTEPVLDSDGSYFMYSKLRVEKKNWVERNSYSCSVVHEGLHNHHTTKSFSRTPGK
Assay: SPR (Biacore T100), hANGPTL4-mFc captured by anti-mouse IgG, antibody injected, 37° C.

{"columns": ["binder", "uom", "t1/2"],
 "data": [
  ["H1H285P (antibody, V domains shown, Fully human antibody, H1H prefix (human IgG1)) VH: EVQLVESGGGLVQPGGSLRLSCAASGFTFSRYDMHWVRQVTGKGLEWVSGIGTAGDTYYPGSVKGRFTISRENDKNSLYLQMNSLRVGDTAVYYCARGDSKNYYVGDYFDYWGQGTLVTVSS VL: DIQMTQSPSTLSASVGDRVTFTCRASHSIGNWLAWYQQKPGKAPKVLIYEASSLEDGVPSRFSGSGSGTEFTLTISSLQPDDFATYYCQQYDTYFRTFGQGTKVEIK", "min", 71],
  ["H1H268P (antibody, V domains shown, also called entire H1H268 mAb; Full mAb) VH: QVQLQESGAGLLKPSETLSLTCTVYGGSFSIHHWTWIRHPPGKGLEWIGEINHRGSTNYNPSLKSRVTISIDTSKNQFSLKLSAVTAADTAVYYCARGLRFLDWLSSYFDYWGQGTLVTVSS VL: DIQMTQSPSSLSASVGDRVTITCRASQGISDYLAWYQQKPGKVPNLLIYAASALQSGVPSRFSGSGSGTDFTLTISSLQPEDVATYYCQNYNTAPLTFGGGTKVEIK", "min", 57],
  ["H1H284P (antibody, V domains shown, also called entire H1H284 mAb; Full mAb) VH: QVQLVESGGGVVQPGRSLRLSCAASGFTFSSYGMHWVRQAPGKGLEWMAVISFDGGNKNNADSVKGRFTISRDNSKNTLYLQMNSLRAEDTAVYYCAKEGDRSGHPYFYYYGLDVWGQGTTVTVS VL: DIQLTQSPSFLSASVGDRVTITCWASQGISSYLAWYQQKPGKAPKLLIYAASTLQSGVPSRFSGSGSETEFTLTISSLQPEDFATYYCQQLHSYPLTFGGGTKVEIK", "min", 81]
]}
